# credit: patent US11512079B2

system: strains of C. neoformans and C. gattii; experiment: Activity vs Cryptococcus, summary over the strains tested; assay type: cell-based, Cryptococcus neoformans and Cryptococcus gattii; conditions: panel of 18 isolates of C. neoformans and C. gattii
measurement.label: MIC90 (µg/mL)
Write it as a number; the unit µg/mL goes unstated.

Ask: Provide only the value of recorded MIC90 for `Nc1ncccc1-c1cc(Cc2ccc(Oc3cccc(F)n3)cc2)no1`
Result: 0.031

====

tested on: Aspergillus fumigatus MYA3626; assay: In vitro antifungal assay (Example IX), microdilution broth, MEC; format: cell-based; conditions: minimum effective concentration (shortening of hyphae), 35° C., 40-48 h, RPMI1640
# minimal effective concentration values compiled below

Ask: Provide only the value of recorded minimal effective concentration for `Nc1ncccc1-c1cc(Cc2ccc(OCc3cccc(F)n3)nc2)no1`
Result: 0.01 to 0.1 µg/mL

Ask: Provide only the value of recorded minimal effective concentration for `Nc1ncccc1-c1cc(Cc2ccc(OCCn3cncn3)nc2)no1`
Result: > 1 µg/mL

Ask: Provide only the value of recorded minimal effective concentration for `Nc1ncccc1-c1cc(Cc2ccc(Oc3nc(F)c(F)cc3F)cc2)no1`
Result: 0.01 to 0.1 µg/mL
